# melting point per record follows

Observe how each entry below is paired with its result.
Cc1cn2cc(-c3cc4ccc(CCCNC5CCOC5)cc4oc3=O)nc2c(C)n1 (stereo not shown): 177 to 180 °C
Cc1cn2cc(-c3cc4ccc(C5CCN(C)CC5)cc4oc3=O)cnc2n1: 300 to 302 °C

Using the record for O=c1oc2cc(N3CCNCC3)ccc2cc1-c1cccc(N2CCCC2)n1 , report its melting point.
190 to 192 °C

Using the record for Cc1nccn2cc(-c3cc4ccc(N5CCNCC5)cc4oc3=O)nc12 , report its melting point.
213 to 215 °C

Using the record for CCN(CC)CCCCc1ccc2cc(-c3cn4cc(C)nc(C)c4n3)c(=O)oc2c1 , report its melting point.
212 to 216 °C

---

# melting point per record follows

Using the record for C[C@@H]1CN(c2ccc3cc(-c4cn5cc(F)cnc5n4)c(=O)oc3c2)CCN1 [Compound 481] , report its melting point.
232 to 236 °C

---

MEASURED_METRIC: melting point

O=c1oc2cc(N3CCCNCC3)ccc2cc1-c1cc2ccccn2n1: 178 to 180 °C
Cc1ccn2nc(-c3cc4ccc(N5CCN[C@H](C)C5)cc4oc3=O)cc2c1: 183 to 187 °C
Cc1cn2cc(-c3cc4ccc(N5CCN6CCC[C@H]6C5)cc4oc3=O)cnc2n1: 295 to 297 °C

# input for lookup
Using the record for Cc1cn2cc(-c3cc4ccc(C5CCN(CCO)CC5)cc4oc3=O)nc2cn1 , report its melting point.
230 to 236 °C

---

# melting point per record follows

Cc1cn2cc(-c3cc4ccc(N5C[C@H]6CN(CCO)C[C@H]6C5)cc4oc3=O)nc2c(C)n1 [Compound 741]: 258 to 268 °C
Cc1cc2cc(-c3cc4ccc(N5CCN(C)[C@@H](C)C5)cc4oc3=O)oc2c(C)n1 [Compound 805]: 200 to 205 °C

# input for lookup
Using the record for Cc1cn2cc(-c3cc4ccc(C5=CC(C)(C)NC(C)(C)C5)cc4oc3=O)nc2c(C)n1 [Compound 949] , report its melting point.
188 to 190 °C

---

MEASURED_METRIC: melting point

Observe how each entry below is paired with its result.
CCCN1CCC(c2ccc3cc(-c4cn5cc(C)nc(C)c5n4)c(=O)oc3c2)CC1: 208 to 212 °C
Cc1cc2cc(-c3cc4ccc(N5CCN(C)[C@H](C)C5)cc4oc3=O)oc2c(C)n1: 199 to 204 °C

Using the record for Cn1cc2cc(-c3cc4ccc(C5CCN(CCO)CC5)cc4oc3=O)ccc2n1 , report its melting point.
220 to 226 °C

---

# melting point per record follows

Observe how each entry below is paired with its result.
Cc1cn2cc(-c3cc4ccc(N5C[C@H]6CCCN[C@H]6C5)cc4oc3=O)nc2c(C)n1 [Compound 781]: 246 to 252 °C
CCN(CC)Cc1ccc2cc(-c3nc4ccccc4s3)c(=O)oc2c1: 116 to 119 °C

Using the record for Cc1cc(Cl)cn2cc(-c3cc4ccc(N5CCNCC5)cc4oc3=O)nc12 , report its melting point.
224 to 233 °C

Using the record for CCN1CCN(c2ccc3cc(-c4cc5c(C)nc(C)cn5c4)c(=O)oc3c2)CC1 , report its melting point.
182 to 185 °C

Using the record for COc1ccc(-c2cc3c(F)cc(N4C[C@@H]5C[C@H]4CN5)cc3oc2=O)cc1OC , report its melting point.
239 to 241 °C
